B1: TSN (parent)
chain: FLAAEQDIREEIRKVVQSLEQTAR

# Variants of: B1
# PROTOCOL_NOTES: protein stability index of a GFP-peptide fusion (GPS, HEK-293T) (PSI 1-6); higher = more stable;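 note: lentivirally expressed fusions sorted by FACS into six bins by GFP to DsRed ratio, PSI derived from sequencing read proportions per bin multiplied by bin number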
# CONDITION_NOTES: c terminus: a fixed tail appended
Record form. Attribute: protein stability index. Fill in for each entry.
Lab note: record the figure alone, no unit after it.

Prompt line: Need protein stability index, item FLAAEQDIREQIRKVVQSLEQTAR [E11Q]
Response line: 2.29

Prompt line: // protein stability index lookup, key: FLAAEQDIKEEIRKVVQSLEQTAR [R9K]
Response line: 2.69

Prompt line: Dear colleague, I am looking for the recorded protein stability index of the following variant: FLAAEQDIREEIRKVVQSLFQTAR [E20F]
Response line: 2.73

Prompt line: I would be grateful if you could share the reported protein stability index for FLAAEQDIRNEIRKVVQSLEQTAR [E10N] .
Response line: 2.12

Prompt line: Given the variant FLAAEQDIREEIRAVVQSLEQTAR [K14A] , what is its reported protein stability index?
Response line: 2.08

Prompt line: Tell me the measured protein stability index of FLAAEQDIREEIRKVVQSLSQTAR [E20S] , please.
Response line: 2.57

Prompt line: Entry FLAAEQDIREEIRKGVQSLEQTAR [V15G] : reported protein stability index = ?
Response line: 3.29

Prompt line: # get_value(readout='protein stability index', item= FLAAEQDIREEIRGVVQSLEQTAR [K14G] )
Response line: 2.03

Prompt line: Given the entry FNAAEQDIREEIRKVVQSLEQTAR [L2N] , report its measured protein stability index.
Response line: 2.38

Prompt line: Name the recorded protein stability index for FLAAEQDIREEIRKDVQSLEQTAR [V15D] .
Response line: 3.62

Prompt line: Give its protein stability index value. Item: FLAAEQDIREYIRKVVQSLEQTAR [E11Y]
Response line: 1.76
